- System: Mycobacterium kansasii
- ASSAY: Antimycobacterial activity against Mycobacterium kansasii 235/80 after 21 days
- Type: functional
- ASSAY CONDITIONS: 235/80, 504 h
Entries and their measured MIC follow.
Express your answer in µM, writing the number without its unit.

Consider the reported MIC for these molecules:
| CHEMICAL SMILES | UNIT STRING | REPORTED VALUE |
| --- | --- | --- |
| O=C(NCCc1ccccc1)Oc1ccc(Cl)cc1C(=O)Nc1ccc(Cl)cc1 | µM | 16 |
| O=C(NCCc1ccccc1)Oc1ccc(Cl)cc1 | µM | 500 |
| O=C(NC1CCCCC1)Oc1ccc(Cl)cc1 | µM | 1000 |
| O=C(NC1CCCCC1)Oc1ccc(Cl)cc1C(=O)Nc1ccc(F)cc1 | µM | 32 |

Alright, here's another molecule for you.
Input line: Quick one: MIC of O=C(NCc1ccccc1)Oc1ccc(Cl)cc1 ?
Output line: 500

====

Entries and their measured MIC follow.
- System: Mycolicibacterium smegmatis
- ASSAY: Antimycobacterial activity against Mycobacterium smegmatis DSM 43465 after 120 hr by resazurin dye based microdilution method
- Format: functional
- ASSAY CONDITIONS: DSM 43465, 120 h
Express your answer in µg/mL, writing the number without its unit.

Consider the reported MIC for these compounds:
| CHEMICAL SMILES | UNIT STRING | REPORTED VALUE |
| --- | --- | --- |
| O=C(Nc1ccccc1)Oc1ccccc1C(=O)Nc1ccccc1 | µg/mL | 31.2 |
| O=C(Nc1ccccc1)Oc1ccc(Cl)cc1C(=O)Nc1ccc(F)cc1 | µg/mL | 1.98 |
| O=C(NCCc1ccccc1)Oc1ccccc1C(=O)Nc1ccccc1 | µg/mL | 31.2 |
| O=C(NCCc1ccccc1)Oc1ccc(Cl)cc1 | µg/mL | 62.5 |

Alright, here's another compound for you.
Input line: Quick one: MIC of O=C(NC1CCCCC1)Oc1ccc(Cl)cc1C(=O)Nc1ccc(Cl)cc1 ?
Output line: 1.56

====

- System: HepG2
- ASSAY: Cytotoxicity against human HepG2 cells assessed as reduction in cell viability after overnight incubation by MTT assay
- Type: cell-based
RECORDED METRIC: IC50 (µM)
Express your answer in µM, writing the number without its unit.

Consider the reported IC50 for these compounds:
| CHEMICAL SMILES | IC50 / µM |
| --- | --- |
| O=C(Nc1ccccc1)Oc1ccccc1C(=O)Nc1ccccc1 | 57.6 |
| O=C(NC12CC3CC(CC(C3)C1)C2)Oc1ccc(Cl)cc1C(=O)Nc1ccc(Cl)cc1 | 24 |
| O=C(NCCc1ccccc1)Oc1ccc(Cl)cc1C(=O)Nc1ccc(F)cc1 | 41.5 |

Input line: Form field - read-out: IC50; system: HepG2; submitted item: O=C(NC12CC3CC(CC(C3)C1)C2)Oc1ccc(Cl)cc1C(=O)Nc1ccc(Br)cc1
Output line: 4.2

Input line: Now give it for O=C(Nc1ccccc1)Oc1ccc(Cl)cc1C(=O)Nc1ccc(C(F)(F)F)cc1 too.
Output line: 9.8

====

Entries and their measured MIC follow.
- Tested on: Mycobacterium tuberculosis
- ASSAY: Antimycobacterial activity against Mycobacterium tuberculosis H37Ra ITM-M006710 after 48 hr by resazurin dye based microdilution method
- Format: functional
- ASSAY CONDITIONS: H37Ra ITM-M006710, 48 h

| COMPOUND | TARGET OR SYSTEM | REPORTED VALUE |
| --- | --- | --- |
| O=C(Nc1ccccc1)Oc1ccc(Cl)cc1C(=O)Nc1ccc(C(F)(F)F)cc1 | Mycobacterium tuberculosis | ≤ 0.9 µM |
| O=C(NC1CCCCC1)Oc1ccc(Cl)cc1C(=O)Nc1ccc(C(F)(F)F)cc1 | Mycobacterium tuberculosis | ≤ 0.88 µM |
| NNC(=O)c1ccncc1 [ISONIAZID] | Mycobacterium tuberculosis | 0.91 to 1.82 µM |
| O=C(NCc1ccccc1)Oc1ccc(Cl)cc1C(=O)Nc1ccc(C(F)(F)F)cc1 | Mycobacterium tuberculosis | ≤ 0.87 µM |
| CO[C@H]1/C=C/O[C@@]2(C)Oc3c(C)c(O)c4c(O)c(c(/C=N/N5CCN(C)CC5)c(O)c4c3C2=O)NC(=O)/C(C)=C\C=C\[C@H](C)[C@H](O)[C@@H](C)[C@@H](O)[C@@H](C)[C@H](OC(C)=O)[C@@H]1C [RIFAMPIN] | Mycobacterium tuberculosis | 0.0005 to 0.009 µM |

Alright, here's another compound for you.
Input line: Quick one: MIC of O=C(NCCc1ccccc1)Oc1ccc(Cl)cc1C(=O)Nc1ccc(C(F)(F)F)cc1 ?
Output line: 0.84 to 1.69 µM

====

Entries and their measured MIC follow.
- System: Mycobacterium kansasii
- ASSAY: Antimycobacterial activity against Mycobacterium kansasii 235/80 after 7 days
- Type: functional
- ASSAY CONDITIONS: 235/80, 168 h
Express your answer in µM, writing the number without its unit.

Consider the reported MIC for these molecules:
| CHEMICAL SMILES | MIC (µM) |
| --- | --- |
| O=C(NCCc1ccccc1)Oc1ccc(Cl)cc1 | 125 |
| O=C(NC1CCCCC1)Oc1ccc(Cl)cc1 | 250 |

Input line: Quick one: MIC of O=C(Nc1ccccc1)Oc1ccc(Cl)cc1C(=O)Nc1ccc(C(F)(F)F)cc1 ?
Output line: 4

Input line: Now give it for O=C(NC12CC3CC(CC(C3)C1)C2)Oc1ccc(Cl)cc1C(=O)Nc1ccc(C(F)(F)F)cc1 too.
Output line: 4

Input line: Now give it for O=C(NCc1ccccc1)Oc1ccc(Cl)cc1 too.
Output line: 125

Input line: Now give it for O=C(Nc1ccccc1)Oc1ccc(Cl)cc1C(=O)Nc1ccc(Br)cc1 too.
Output line: 4

Input line: Now give it for O=C(NC12CC3CC(CC(C3)C1)C2)Oc1ccccc1C(=O)Nc1ccccc1 too.
Output line: 125

Input line: Now give it for O=C(NCCc1ccccc1)Oc1ccc(Cl)cc1C(=O)Nc1ccc(Br)cc1 too.
Output line: 4

Input line: Now give it for O=C(NCCc1ccccc1)Oc1ccccc1C(=O)Nc1ccccc1 too.
Output line: 125

Input line: Now give it for O=C(NC1CCCCC1)Oc1ccc(Cl)cc1C(=O)Nc1ccc(F)cc1 too.
Output line: 16

Input line: Now give it for O=C(Nc1ccccc1)Oc1ccc(Cl)cc1C(=O)Nc1ccc(Cl)cc1 too.
Output line: 16

Input line: Now give it for O=C(Nc1ccccc1)Oc1ccc(Cl)cc1C(=O)Nc1ccc(F)cc1 too.
Output line: 8

Input line: Now give it for O=C(NC1CCCCC1)Oc1ccc(Cl)cc1C(=O)Nc1ccc(Br)cc1 too.
Output line: 4

Input line: Now give it for O=C(NC1CCCCC1)Oc1ccccc1C(=O)Nc1ccccc1 too.
Output line: 125

====

- ASSAY: in vitro
- ASSAY CONDITIONS: human, HepG2 cells
- Description: Selectivity index, ratio of IC50 for human HepG2 cells to MIC for antimycobacterial activity against Mycobacterium tuberculosis H37Rv
RECORDED METRIC: selectivity ratio

Consider the reported selectivity ratio for these molecules:
| CHEMICAL SMILES | REPORTED VALUE |
| --- | --- |
| O=C(NCCc1ccccc1)Oc1ccc(Cl)cc1C(=O)Nc1ccc(Br)cc1 | > 6.3 |
| O=C(Nc1ccccc1)Oc1ccc(Cl)cc1 | > 0.3 |

Alright, here's another molecule for you.
Input line: Quick one: selectivity ratio of O=C(NCc1ccccc1)Oc1ccc(Cl)cc1C(=O)Nc1ccc(Br)cc1 ?
Output line: > 3.1

====

- Test system: Mycolicibacterium smegmatis
- ASSAY: Antimycobacterial activity against Mycobacterium smegmatis DSM 43465 after 120 hr by resazurin dye based microdilution method
- Assay type: functional
- ASSAY CONDITIONS: DSM 43465, 120 h
Entries and their measured MIC follow.
Express your answer in µM, writing the number without its unit.

| CHEMICAL SMILES | MIC [µM] |
| --- | --- |
| CC[C@@H](CO)NCCN[C@@H](CC)CO | 1.8 |

Input line: Quick one: MIC of O=C(NCc1ccccc1)Oc1ccc(Cl)cc1C(=O)Nc1ccc(C(F)(F)F)cc1 ?
Output line: 1.74

====

Entries and their measured IC50 follow.
- System: HepG2
- ASSAY: Cytotoxicity against human HepG2 cells assessed as reduction in cell viability after overnight incubation by MTT assay
- Type: cell-based

| CHEMICAL SMILES | RECORDED METRIC | REPORTED VALUE |
| --- | --- | --- |
| O=C(NCc1ccccc1)Oc1ccc(Cl)cc1C(=O)Nc1ccc(F)cc1 | IC50 | > 125 µM |
| O=C(NC12CC3CC(CC(C3)C1)C2)Oc1ccccc1C(=O)Nc1ccccc1 | IC50 | > 250 µM |
| O=C(NC1CCCCC1)Oc1ccc(Cl)cc1C(=O)Nc1ccc(Br)cc1 | IC50 | > 50 µM |

Input line: Quick one: IC50 of O=C(NC12CC3CC(CC(C3)C1)C2)Oc1ccc(Cl)cc1 ?
Output line: > 125 µM

Input line: Now give it for O=C(NCCc1ccccc1)Oc1ccc(Cl)cc1C(=O)Nc1ccc(Br)cc1 too.
Output line: > 50 µM

Input line: Now give it for O=C(NCCc1ccccc1)Oc1ccc(Cl)cc1 too.
Output line: > 125 µM

Numbers sourced from ChEMBL document CHEMBL4406824.
